# SYSTEM_UNDER_TEST: T1, human high affinity trimeric IL-2 receptor (CD25/CD122/CD132) (human, UniProt P01589 22-272; P14784 27-551; P31785 23-369)
# T1 sequence 1: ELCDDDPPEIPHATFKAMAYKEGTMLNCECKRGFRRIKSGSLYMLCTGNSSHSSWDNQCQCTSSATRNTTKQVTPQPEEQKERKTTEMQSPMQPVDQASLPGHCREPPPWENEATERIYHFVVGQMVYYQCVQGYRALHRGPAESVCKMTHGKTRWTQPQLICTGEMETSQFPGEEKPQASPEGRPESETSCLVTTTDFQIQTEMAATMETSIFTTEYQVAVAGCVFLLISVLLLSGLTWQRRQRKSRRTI
# T1 sequence 2: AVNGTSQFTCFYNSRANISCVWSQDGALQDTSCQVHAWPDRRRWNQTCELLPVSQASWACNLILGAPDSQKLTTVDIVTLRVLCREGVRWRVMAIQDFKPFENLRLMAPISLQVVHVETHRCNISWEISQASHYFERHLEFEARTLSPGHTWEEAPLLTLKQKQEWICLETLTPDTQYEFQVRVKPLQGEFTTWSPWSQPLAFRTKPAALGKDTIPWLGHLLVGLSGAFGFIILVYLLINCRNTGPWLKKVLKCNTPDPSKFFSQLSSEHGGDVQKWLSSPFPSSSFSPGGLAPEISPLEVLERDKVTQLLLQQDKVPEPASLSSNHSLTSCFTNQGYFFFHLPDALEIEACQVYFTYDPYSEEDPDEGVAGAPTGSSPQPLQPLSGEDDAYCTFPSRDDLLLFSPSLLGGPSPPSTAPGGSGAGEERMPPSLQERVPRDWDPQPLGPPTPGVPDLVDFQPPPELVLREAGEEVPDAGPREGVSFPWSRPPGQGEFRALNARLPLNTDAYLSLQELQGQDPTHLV
# T1 sequence 3: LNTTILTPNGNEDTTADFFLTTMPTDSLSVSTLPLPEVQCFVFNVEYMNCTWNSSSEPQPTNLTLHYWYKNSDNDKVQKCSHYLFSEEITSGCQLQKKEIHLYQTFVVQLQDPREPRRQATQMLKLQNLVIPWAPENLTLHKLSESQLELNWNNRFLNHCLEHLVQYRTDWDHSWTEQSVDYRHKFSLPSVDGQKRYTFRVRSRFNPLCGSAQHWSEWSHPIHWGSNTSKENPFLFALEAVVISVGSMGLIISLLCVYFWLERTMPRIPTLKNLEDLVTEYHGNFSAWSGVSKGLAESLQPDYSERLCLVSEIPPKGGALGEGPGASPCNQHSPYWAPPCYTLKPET
# ASSAY_NOTES: cell-based or functional assay
READOUT_LABEL: pSTAT5 ratio YT CD25/YT, dilution factor 16, lower table

Below, each entry is followed by its recorded pSTAT5 ratio YT CD25/YT, dilution factor 16, lower table result.
1) RVH (ligand) cytokine: APTSSSTKKTQLQLEHLRLDLVMILNGINNYKNPKLTRMLTFKFYMPKKATELKHLQCLEEELKPLEEVLNLAQSKNFHLRPRDLISNINVIVLELKGSETTFMCEYADETATIVEFLNRWITFCHSIISTLT ... 1.9
2) RAH (ligand) cytokine: APTSSSTKKTQLQLEHLRLDLAMILNGINNYKNPKLTRMLTFKFYMPKKATELKHLQCLEEELKPLEEVLNLAQSKNFHLRPRDLISNINVIVLELKGSETTFMCEYADETATIVEFLNRWITFCHSIISTLT ... 1.2
3) RRH (ligand) cytokine: APTSSSTKKTQLQLEHLRLDLRMILNGINNYKNPKLTRMLTFKFYMPKKATELKHLQCLEEELKPLEEVLNLAQSKNFHLRPRDLISNINVIVLELKGSETTFMCEYADETATIVEFLNRWITFCHSIISTLT ... 6.5
4) RSH (ligand) cytokine: APTSSSTKKTQLQLEHLRLDLSMILNGINNYKNPKLTRMLTFKFYMPKKATELKHLQCLEEELKPLEEVLNLAQSKNFHLRPRDLISNINVIVLELKGSETTFMCEYADETATIVEFLNRWITFCHSIISTLT ... 1.8
5) YEH (ligand) cytokine: APTSSSTKKTQLQLEHLYLDLEMILNGINNYKNPKLTRMLTFKFYMPKKATELKHLQCLEEELKPLEEVLNLAQSKNFHLRPRDLISNINVIVLELKGSETTFMCEYADETATIVEFLNRWITFCHSIISTLT ... 1.2
6) RFH (ligand) cytokine: APTSSSTKKTQLQLEHLRLDLFMILNGINNYKNPKLTRMLTFKFYMPKKATELKHLQCLEEELKPLEEVLNLAQSKNFHLRPRDLISNINVIVLELKGSETTFMCEYADETATIVEFLNRWITFCHSIISTLT ... 2.5

1: RHH (ligand) cytokine: APTSSSTKKTQLQLEHLRLDLHMILNGINNYKNPKLTRMLTFKFYMPKKATELKHLQCLEEELKPLEEVLNLAQSKNFHLRPRDLISNINVIVLELKGSETTFMCEYADETATIVEFLNRWITFCHSIISTLT
2: TEH (ligand) cytokine: APTSSSTKKTQLQLEHLTLDLEMILNGINNYKNPKLTRMLTFKFYMPKKATELKHLQCLEEELKPLEEVLNLAQSKNFHLRPRDLISNINVIVLELKGSETTFMCEYADETATIVEFLNRWITFCHSIISTLT
Data request: Could you determine which record has the numerically smaller pSTAT5 ratio YT CD25/YT, dilution factor 16, lower table? Candidates: 1 and 2 Returns: label corresponding to the selected item.
Data returned: 2
(2: 1.3, 1: 3.9)
